- Read-out: Interleukin-8 (IL8), CXCL8 (gene 3576)
- assay-comment: BSK_SAg_IL8: BioMAP Diversity Plus: SAg Assay for Interleukin-8 (IL8) Biomarker Activity (AID 2283094)
- condition-notes: primary human HUVEC with PBMC; actives raise or lower the signal
The source made the active and inactive calls. How the source made its calls: active means hit-call score of the fitted dose curve at least 0.9, where 1 is the maximum; inactive means score below 0.9.
Labels: active, inactive

molecule	cat
CN[C@H]1CC[C@@H](c2ccc(Cl)c(Cl)c2)c2ccc(S(N)(=O)=O)cc21	active
O=c1c(O)c(-c2ccc(O)c(O)c2)oc2cc(O)cc(O)c12	inactive
CC(=O)Oc1ccccc1C(=O)O	inactive
CC(C)c1ccc(C(=O)N=C(N)N)cc1S(C)(=O)=O	inactive
Cc1cc(NC(=O)C(=O)O)cc(C)c1Oc1ccc(O)c2c1CCC2	inactive
CCCCCCCCCCCC(=O)OC	inactive
OC[C@@H](O)[C@@H](O)[C@H](O)[C@H](O)CO	inactive
NS(=O)(=O)c1cc2c(cc1Cl)NCNS2(=O)=O	inactive
CCCCC(CC)COC(=O)CC(C(=O)OCC(CC)CCCC)S(=O)(=O)O (stereo unspecified)	active
c1cc(-c2ccncc2)ccn1	inactive
CCCCc1ccc2c(n1)[C@@H](c1ccc(OC)cc1C[C@H](C)C(=O)O)[C@H](C(=O)O)[C@H]2c1ccc2c(c1)OCO2	inactive
CC(CO)OC(C)CO (stereo unspecified) (tested in a mixture with another compound)	inactive
CC(=O)C(C)=CC1C(C)=CCCC1(C)C (stereo unspecified)	inactive
CN1CCN(Cc2cc(-c3ccc4[nH]c(=O)oc4c3)co2)[C@@H](c2ccc(F)cc2)C1	active
CC1=C(/C=C/C(C)=C/C=C/C(C)=C/CO)C(C)(C)CCC1	inactive
COc1ccc2c(c1)c(CC(=O)O)c(C)n2C(=O)c1ccc(Cl)cc1	inactive
COc1ccc(C)cc1N	inactive
CC(=O)OC/C=C(\C)CCC=C(C)C	inactive
C=CCOC(=O)c1ccccc1C(=O)OCC=C	inactive
Cc1nc(-c2ccc3c(c2)CCN(CCC2CCC(NC(=O)/C=C/c4ccc(F)cc4)CC2)CC3)no1 (stereo unspecified)	inactive
CCOC(=O)C(C)(C)Oc1ccc(Cl)cc1	inactive
O=[N+]([O-])C(CO)(CO)CO	inactive
CC=Cc1ccc(O)c(OC)c1	inactive
CCCCCCCCCCCCCO	active
Nc1ccc2c(c1)C(=O)c1ccccc1C2=O	inactive
CN1CCCC1=O	inactive

----------
- Read-out: Protein phosphatase 2A (PPP2R4), PTPA (gene 5524)
- assay-comment: LTEA_HepaRG_PPP2R4: Life Technologies and Expression Analysis (LTEA) Assay for Protein phosphatase 2A (PPP2R4) using HepaRG (AID 2283522)
- condition-notes: mRNA level, 48 h; actives raise or lower the signal
Active and inactive are the calls of the source. Rule for the calls: active = hit-call score of the fitted dose curve at least 0.9, where 1 is the maximum; inactive = score below 0.9.
Labels: active, inactive

compound	cat
CCCCCCOCCO	inactive
CCCCN(CCCC)CCCC	inactive
O=c1[nH]cc(F)c(=O)[nH]1	active
CN1CCN(Cc2cc(-c3ccc4[nH]c(=O)oc4c3)co2)[C@@H](c2ccc(F)cc2)C1	inactive
CCCCC(CC)COC(=O)CC(C(=O)OCC(CC)CCCC)S(=O)(=O)O (stereo unspecified)	active
C[Si]1(C)O[Si](C)(C)O[Si](C)(C)O[Si](C)(C)O1	inactive
COc1cc(S(=O)(=O)O)c(C)cc1N=Nc1c(O)ccc2cc(S(=O)(=O)O)ccc12	inactive
CCCCCCC(=O)OCC	inactive
CCCCCCCCCCCCCCCC	inactive
CC(=O)Oc1ccccc1C(=O)O	inactive
Cc1ccc2ncccc2c1	inactive
CCCCCCCCCCC	inactive
COC(=O)c1ccc(O)cc1	inactive
Oc1ccc2ccccc2c1N=Nc1ccccc1	inactive
COc1cc(C=O)ccc1O	inactive
c1cc(-c2ccncc2)ccn1	inactive
CCCCCC(=O)O	inactive
Cc1cccc([N+](=O)[O-])c1C	inactive
Cc1cc(=O)[nH]c(=S)[nH]1	inactive
CCOC(=O)CCC(=O)OCC	inactive
Cc1oc(-c2ccccc2)nc1CCOc1cccc2c1ccn2CCC(=O)O	inactive
Cc1ccc(C)c(O)c1C	inactive
Cc1cccc(Nc2cc(Cl)nc(SCC(=O)O)n2)c1C	inactive
COc1ccc(S(=O)(=O)N2C(=O)[C@@](c3ccccc3OC)(N3C[C@H](O)C[C@H]3C(=O)N(C)C)c3cc(Cl)ccc32)c(OC)c1	active
C=CCOC(=O)c1ccccc1C(=O)OCC=C	inactive
Cc1ccc(C(C)C)c(O)c1	inactive
CC=Cc1ccc(O)c(OC)c1	inactive
Nc1ccccc1N	active
Nc1ccc(S(=O)(=O)c2ccc(N)cc2)cc1	inactive
CC(C)c1ccc(C(=O)N=C(N)N)cc1S(C)(=O)=O	active
O=C(O)CCCCC(=O)O	inactive

----------
- assay-comment: APR_HepG2_CellLoss_72hr: Apredica 72-hour HepG2 Assay for Cell Loss (AID 2282915)
- condition-notes: high-content imaging
Calls of active or inactive are those of the source. How the source made its calls: active means hit-call score of the fitted dose curve at least 0.9, where 1 is the maximum; inactive means score below 0.9.
Labels: active, inactive

compound	cat
Clc1cc(Cl)c(Cl)cc1Cl	inactive
CNCc1cc(F)ccc1Oc1ccc(Cl)c(Cl)c1	active
Cc1cccc(Nc2cc(Cl)nc(SCC(=O)O)n2)c1C	inactive
Cc1nc(C)nc(N2C[C@@H](C)N(c3ccnc([C@@H](C)O)n3)[C@@H](C)C2)n1	inactive
COc1ccc2c(c1)c(CC(=O)O)c(C)n2C(=O)c1ccc(Cl)cc1	inactive
CCCCN(CCCC)CCCC	inactive
O=c1c(O)c(-c2ccc(O)c(O)c2)oc2cc(O)cc(O)c12	active
CC1(C)CC(N=C=O)CC(C)(CN=C=O)C1 (stereo not drawn)	inactive
CC(=O)Oc1ccccc1C(=O)O	inactive
O=C(O)CCCCC(=O)O	inactive
CCCCCCCCCCCCCCCC	inactive
O=C(O)Cc1ccccc1Nc1c(Cl)cccc1Cl	active
Cc1nc(-c2ccc3c(c2)CCN(CCC2CCC(NC(=O)/C=C/c4ccc(F)cc4)CC2)CC3)no1 (stereo not drawn)	inactive

----------
- assay-comment: BSK_3C_TissueFactor: BioMAP Diversity Plus: 3C Assay for Tissue Factor Biomarker Activity (AID 2282997)
- condition-notes: BioMAP 3C HUVEC, tissue factor biomarker readout; actives raise or lower the signal
Active and inactive are the calls of the source. The calls were made as follows: active = hit-call score of the fitted dose curve at least 0.9, where 1 is the maximum; inactive = score below 0.9.
observable: outcome

compound-structure	observable	result
COc1cc(S(=O)(=O)O)c(C)cc1N=Nc1c(O)ccc2cc(S(=O)(=O)O)ccc12	outcome	inactive
CCCCc1ccc2c(n1)[C@@H](c1ccc(OC)cc1C[C@H](C)C(=O)O)[C@H](C(=O)O)[C@H]2c1ccc2c(c1)OCO2	outcome	inactive
Nc1ccccc1N	outcome	inactive

----------
- Read-out: Monocyte Chemoattractant Protein-1 (MCP1), CCL2 (gene 6347)
- assay-comment: BSK_SAg_MCP1: BioMAP Diversity Plus: SAg Assay for Monocyte Chemoattractant Protein-1 (MCP1) Biomarker Activity (AID 2283090)
- condition-notes: primary human HUVEC with PBMC; actives raise or lower the signal
- Experimental: BSK_SAg is a cell-based, multiplexed-readout assay that uses umbilical vein endothelium and peripheral blood mononuclear cells, a human vascular primary cell co-culture, with measurements taken at 24 hours after chemical dosing in a 96-well plate.BSK_SAg_MCP1 is an assay component measured in the BSK_SAg assay. It measures MCP-1 antibody related to regulation of gene expression using ELISA technology.Data from the assay component BSK_SAg_MCP1 was analyzed into 1 assay endpoint. […]
Calls of active or inactive are those of the source. The calls were made as follows: active = hit-call score of the fitted dose curve at least 0.9, where 1 is the maximum; inactive = score below 0.9.

compound-structure	AC50
Cc1ccccc1Cl	inactive
CCCCCCCCCCCCCCCC	inactive
CC(C)(C)c1cc(O)c(C(C)(C)C)cc1O	5.94 µM (active)
CNCc1cc(F)ccc1Oc1ccc(Cl)c(Cl)c1	26.4 µM (active)
CCOC(=O)CCC(=O)OCC	inactive
Cc1cc(=O)[nH]c(=S)[nH]1	inactive
CC(=O)Oc1ccccc1C(=O)O	inactive
CC1(C)NC(=O)NC1=O	inactive

----------
- tested-target: Heat shock factor protein 1 (Homo sapiens)
- assay-comment: ATG_HSE_CIS: Attagene CIS-FACTORIAL HepG2 Assay for human Heat Shock Transcription Factor 1 (HSE) (AID 2282953)
- condition-notes: HepG2 HSE cis-reporter, Attagene RNA transcription; actives raise or lower the signal
- Protocol: ATG_CIS is a cell-based, multiplexed-readout assay that uses HepG2, a human liver cell line, with measurements taken at 24 hours after chemical dosing in a 24-well plate.ATG_HSE_CIS is one of 52 assay component(s) measured or calculated from the ATG_CIS assay. […] This assay endpoint, ATG_HSE_CIS, was analyzed with bidirectional fitting relative to DMSO as the negative control and baseline of activity. […]
Activity calls are given as the source filed them. How the source made its calls: active means hit-call score of the fitted dose curve at least 0.9, where 1 is the maximum; inactive means score below 0.9.
observable: AC50

compound	tested-target	result
CC(=O)OCCOCCOCCOC(C)=O	Heat shock factor protein 1 (Homo sapiens)	inactive
CCCCCCCCCCO	Heat shock factor protein 1 (Homo sapiens)	inactive
O=c1[nH]cc(F)c(=O)[nH]1	Heat shock factor protein 1 (Homo sapiens)	inactive
FC(F)(F)C(F)(F)C(F)(F)C(F)(F)C(F)(F)C(F)(F)CCI	Heat shock factor protein 1 (Homo sapiens)	inactive
CC(=O)C(C)=CC1C(C)=CCCC1(C)C (stereo unspecified)	Heat shock factor protein 1 (Homo sapiens)	inactive
CCOc1ccc2c(c1)C(C)=CC(C)(C)N2	Heat shock factor protein 1 (Homo sapiens)	152 µM (active)
